// reported koff per item
Biological target: T1, hIL2-DM-his (human, UniProt P60568 21-153)
T1 construct: expressed in ExpiCHO-S cells, nickel-column purified; also called hIL-2 mutein containing two point mutations K64G and N90R (with a his-tag); not shown: his-tag
T1 sequence (P60568 21-153 K84G/N110R): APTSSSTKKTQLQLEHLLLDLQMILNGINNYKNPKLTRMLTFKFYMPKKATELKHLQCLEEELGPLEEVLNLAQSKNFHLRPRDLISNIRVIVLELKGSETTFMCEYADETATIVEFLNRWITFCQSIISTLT
Assay: BLI ForteBio, Ab on Protein A sensor
Return type: number; implicit unit s⁻¹.

binder: K4G4 (antibody, V domains shown) VH: QVQLVQSGAEVKKPGATVKISCKVSGDTITAYYMHWVRQAPGQGLEWIGRIDPEDDSTKYAENFKGRVTITADTSTDTAYMELSSLRSEDTAVYYCTTVTFLYSRELRWFAYWGQGTLVTVSS VL: DIVLTQSPATLSLSPGERATLSCQASQYIGNYLSWYQQKPGQAPRLLIYSATSLASGIPARFSGSRSGTDFTLTISSLEPEDFAVYYCLQHYSTPYTFGQGTKLEIK
measurement name: koff
assay result: 0.00082

Now consider a different binder.
Quick note, koff for K2G5 (antibody, V domains shown) VH: QVQLVQSGAEVKKPGATVKISCKVSGDTITAYYMHWVRQAPGQGLEWIGRIDPEDDSTKYAENFKGRVTITADTSTDTAYMELSSLRSEDTAVYYCTTVTFYYTRELRWFAYWGQGTLVTVSS VL: DIVLTQSPATLSLSPGERATLSCQASQYISNYLSWYQQKPGQAPRLLIYSATSLASGIPARFSGSRSGTDFTLTISSLEPEDFAVYYCLQHYSTPYTFGQGTKLEIK landed at 0.000553
